Biological target: Human Siglec-9-Fc (recombinant human Siglec-9 extracellular domain Q18-G348 fused to human IgG1 Fc) (human)
Sequence (chain, as listed by the source limits assumed): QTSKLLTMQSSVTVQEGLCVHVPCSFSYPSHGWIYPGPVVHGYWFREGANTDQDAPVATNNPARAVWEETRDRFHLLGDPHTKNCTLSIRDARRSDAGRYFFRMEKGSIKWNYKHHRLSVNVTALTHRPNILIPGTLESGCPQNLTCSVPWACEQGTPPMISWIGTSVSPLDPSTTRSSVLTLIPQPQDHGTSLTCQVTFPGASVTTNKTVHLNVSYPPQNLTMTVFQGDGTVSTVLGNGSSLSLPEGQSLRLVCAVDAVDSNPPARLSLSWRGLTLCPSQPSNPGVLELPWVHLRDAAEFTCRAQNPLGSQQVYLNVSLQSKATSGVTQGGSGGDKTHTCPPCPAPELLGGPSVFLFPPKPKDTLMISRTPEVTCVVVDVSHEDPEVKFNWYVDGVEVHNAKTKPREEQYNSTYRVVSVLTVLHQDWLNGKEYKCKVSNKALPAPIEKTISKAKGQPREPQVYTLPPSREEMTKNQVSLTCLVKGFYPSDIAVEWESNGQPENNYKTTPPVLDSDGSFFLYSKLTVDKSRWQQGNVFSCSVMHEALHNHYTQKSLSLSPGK
Test: BLI binning, hSiglec-9-Fc on AHC sensor; competitor bound first (row): 9D21
ENDPOINT_LABEL: maximum binding nm shift (nm)
Report only the number, with the unit nm understood.

Worked examples, 3 binders total:
>>> test_result("12P18 (antibody, V domains shown) VH: QVQLQQSGAELVRPGASVTLSCKASGYTFTDYEMHWVKQTPVHGLEWIGAIDPEAGGTAYNRKFKGKAILTADKSSSTAYMELRSLTSEDSAVYYCTNLGRDYWGQGTTLTVSS VL: DIVMSQSPSSLAVSVGEKVTMSCKSSQSLLYSSTQKNYLAWYQQKPGQSPKRLIYWASTRESGVPDRFTGSGSGTDFTLTISSVKAEDLAVYYCQQYYSYWTFGGGTKLEIK")
0.349
>>> test_result("12G23 (antibody, V domains shown) VH: EVQLQQSGPELVRPGASVKMSCKASGYTFTDYNMHWVKQSHGKSLEWIGYINPNNGGTSYNQKFKGKATLTVNKSSSTAYMELRSLTSDDSAVYYCAREGYGNYPFYWGQGTTLTVSS VL: DIVLTQSPASLAVSLGQRVTISCRGSESVEYYGTSLMQWYQQKPGQPPKLLIYAASNVESGVPARFSGSGSGTDFSLNIHPVEEDDIAMYFCQQDRKVPYTFGGGTKLEIK")
0.162
>>> test_result("13O18 (antibody, V domains shown) VH: EVQLQQSGPELVRPGASVKMSCKASGYTFTDYNMHWVKQSHGKSLEWIGYINPNNGGTTYNQNFKGKATLTVNKSSSTAYMELRSLTSEDSAVYYCAREGYGNYPFYWGQGTTLTVSS VL: DIVLTQSPASLAVSLGQRVTISCRASESVEYYGTSLMQWYQQKPGQPPKLLIYAASNVESGVPARFSGSGSGTDFSLNIHPVEEDDIAMFFCQQDRKVPYTFGGGTKLEIK")
0.163

Ask: Query maximum binding nm shift for 12L19 (antibody, V domains shown) VH: QVTLKESGPGILQPSQTLSLTCSFSGFSLNTFGMAVGWIRQPSGKGLEWLAHIWWDDSYYFNPALRSRLTISKDTSKNQVFLTIANVDTADTATYYCTRIPDDYDDYAMDYWGQGTSVTVSS VL: DVVMTQTPLSLPVSLGDQASISCRSSQSLVHSNGNTYLHWYLQKPGQSPKLLVYKVSNRFSGVPDRFSGSGSGTDFTLKISRVEAEDLGVYFCSQNTHIPYTFGGGTKLEIK
Result: 0.263
